SUBJECT OF TEST: IgA-specific serine endopeptidase autotransporter (Neisseria gonorrhoeae, UniProt P09790)
Sequence (P09790 whole entry): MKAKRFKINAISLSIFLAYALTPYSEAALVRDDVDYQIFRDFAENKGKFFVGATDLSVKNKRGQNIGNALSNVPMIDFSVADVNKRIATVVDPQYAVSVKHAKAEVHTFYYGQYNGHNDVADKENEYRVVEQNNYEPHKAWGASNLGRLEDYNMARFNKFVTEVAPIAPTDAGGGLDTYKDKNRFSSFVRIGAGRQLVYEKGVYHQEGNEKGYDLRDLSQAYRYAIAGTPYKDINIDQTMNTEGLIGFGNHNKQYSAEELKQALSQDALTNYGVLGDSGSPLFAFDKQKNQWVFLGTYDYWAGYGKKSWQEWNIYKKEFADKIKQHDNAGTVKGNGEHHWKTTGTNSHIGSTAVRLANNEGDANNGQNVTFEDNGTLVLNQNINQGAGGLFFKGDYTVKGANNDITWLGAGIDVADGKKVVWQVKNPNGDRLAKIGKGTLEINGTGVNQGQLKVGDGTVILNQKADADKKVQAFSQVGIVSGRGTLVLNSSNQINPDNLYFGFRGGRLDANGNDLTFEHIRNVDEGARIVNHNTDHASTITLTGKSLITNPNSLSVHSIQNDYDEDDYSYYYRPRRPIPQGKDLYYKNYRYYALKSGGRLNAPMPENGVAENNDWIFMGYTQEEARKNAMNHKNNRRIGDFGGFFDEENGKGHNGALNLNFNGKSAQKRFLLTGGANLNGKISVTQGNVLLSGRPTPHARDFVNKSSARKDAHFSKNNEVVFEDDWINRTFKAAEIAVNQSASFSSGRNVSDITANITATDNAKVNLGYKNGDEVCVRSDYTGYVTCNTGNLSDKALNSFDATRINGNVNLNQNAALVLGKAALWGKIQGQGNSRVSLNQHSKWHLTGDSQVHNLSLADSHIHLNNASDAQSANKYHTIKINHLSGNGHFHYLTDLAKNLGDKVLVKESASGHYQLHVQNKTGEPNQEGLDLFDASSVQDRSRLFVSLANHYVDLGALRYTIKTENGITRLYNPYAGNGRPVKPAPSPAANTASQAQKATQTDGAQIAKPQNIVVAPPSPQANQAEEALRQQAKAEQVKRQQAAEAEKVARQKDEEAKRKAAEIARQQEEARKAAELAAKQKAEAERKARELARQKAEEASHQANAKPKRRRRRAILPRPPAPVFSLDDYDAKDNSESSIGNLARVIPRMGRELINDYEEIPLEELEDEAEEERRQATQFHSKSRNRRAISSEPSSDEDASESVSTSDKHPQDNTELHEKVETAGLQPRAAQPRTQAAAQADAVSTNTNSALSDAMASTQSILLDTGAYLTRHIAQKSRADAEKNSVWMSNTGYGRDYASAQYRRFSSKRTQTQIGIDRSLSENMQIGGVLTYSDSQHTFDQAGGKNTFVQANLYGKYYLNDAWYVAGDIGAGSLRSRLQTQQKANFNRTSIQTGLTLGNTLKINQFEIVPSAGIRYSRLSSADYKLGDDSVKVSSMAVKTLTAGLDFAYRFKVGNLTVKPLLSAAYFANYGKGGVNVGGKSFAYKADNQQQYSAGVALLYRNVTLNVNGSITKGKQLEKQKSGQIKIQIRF
RUN DESCRIPTION: Tested for inhibitory activity against IgA1 proteinase
OBSERVATION TYPE: IC50 (µM)

               substance  scale_unit  test_value
0  H-TPPTPSPSTPPTPSPS-OH          µM         310
